Assignment: determine reported melting point for the given compounds.

Field: example entries. Status: answers known.
> print(dat)
                                   compound  endpoint.result
1                        Nc1cc(Cl)c(Cl)cc1N           160 °C
2               CN(C)C(CSC(N)=O)CSC(N)=O.Cl           180 °C
3  C[C@]12CCC(=O)C=C1CC[C@@H]1[C@@H]2CC[C@@]2(C)[C@H]1CC[C@]2(C)O           163 °C
4                         CC(C)CCC[C@H](C)O          -105 °C
5                CC(=O)c1ccccc1[N+](=O)[O-]          28.5 °C

// batch mode: one melting point value per listed entry
1. CCOc1cc(OCC)c(C(=O)CCC(=O)O)cc1OCC
2. CC(C)c1ccccc1
3. OCCOCCO
4. Nc1cccc2c1C(=O)c1cccc(N)c1C2=O
5. Cc1cc(C)c(C)c(C)c1

RESULT:
1. 150 °C
2. -96 °C
3. -10.4 °C
4. 319 °C
5. -23.7 °C

// batch mode: one melting point value per listed entry
1. c1ccc(-c2cccnc2)cc1
2. NC(=O)C1c2ccccc2CCc2ccccc21
3. COc1ccc2ncccc2c1

RESULT:
["164 °C", "194 °C", "26.5 °C"]

// batch mode: one melting point value per listed entry
1. N[C@@H](CCC(=O)N[C@@H](CS)C(=O)NCC(=O)O)C(=O)O
2. CCCCCCCCCCC(C)=O
3. Clc1ccc(C(Cl)Cl)c(Cl)c1Cl
4. O=C(O)c1cc(O)cc(C(=O)O)c1
5. O=C(NO)c1ccccc1O

RESULT:
195 °C
21 °C
84 °C
293 °C
168 °C

// batch mode: one melting point value per listed entry
1. FC(Cl)Br (centres undefined)
2. Clc1cc2oc3c(Cl)cc(Cl)c(Cl)c3c2cc1Cl
3. NS(=O)(=O)c1cc(C(=O)c2ccc(O)cc2)cs1
4. Clc1ccc(Cl)c(I)c1
5. CCCCCCCCCCCCCCCC(C)=O
6. OCC(O)CN1CCN(c2ccccc2)CC1 (centres undefined)
7. CNC(=O)Oc1cc(C)cc(C(C)C)c1

RESULT:
1. -115 °C
2. 237 °C
3. 192 °C
4. 22 °C
5. 48 °C
6. 105 °C
7. 87 °C

// batch mode: one melting point value per listed entry
1. CC(C)CCC[C@@H](C)[C@H]1CC[C@H]2C3=CC=C4C[C@@H](O)CC[C@]4(C)[C@H]3CC[C@]12C
2. Clc1ccc2cc[nH]c2c1

RESULT:
1. 150 °C
2. 90 °C

// batch mode: one melting point value per listed entry
1. CC(C)(Oc1ccc(C2CC2(Cl)Cl)cc1)C(=O)O (centres undefined)
2. Cc1ccc(O)c(I)c1
3. S=C(S)N1CCNCC1
4. O=C=Nc1cccc2c(N=C=O)cccc12

RESULT:
1: 115 °C; 2: 35 °C; 3: 228 °C; 4: 130 °C

// batch mode: one melting point value per listed entry
1. C=CCOC(Cn1ccnc1)c1ccc(Cl)cc1Cl (centres undefined)
2. CCCC(=O)c1cc(O)c(O)cc1O
3. CCCCCCC(C)OC(=O)COc1nc(F)c(Cl)c(N)c1Cl (centres undefined)
4. C[C@]12CCC(=O)C=C1CC[C@@H]1[C@@H]2C(=O)C[C@@]2(C)[C@H]1CC[C@]2(O)[C@H](O)CO

RESULT:
1. 52.7 °C
2. 154 °C
3. 59 °C
4. 208 °C

// batch mode: one melting point value per listed entry
1. CCCCS(=O)(=O)CCCC
2. C#CCCCCCCCCCCCCC

RESULT:
1: 45 °C; 2: 10 °C

====

Assignment: determine reported melting point for the given compounds.
Numbers only, in °C.

Field: example entries. Status: answers known.
> print(dat)
                            compound  measurement.units  endpoint.result
1                        O=C(NCO)NCO                 °C              126
2                     Cc1ccc(Cl)cc1C                 °C               -6
3  O=C1c2ccccc2C(=O)C1c1ccc2ccccc2n1                 °C              241
4                  OB(O)c1ccc(Cl)cc1                 °C              286
5        c1csc(-c2ccc(-c3cccs3)s2)c1                 °C             93.5

// batch mode: one melting point value per listed entry
1. O=NN(CCCl)C(=O)NC1CCCCC1
2. CC(C)(O)CCC(C)(C)O
3. CCCCCCC(=O)OCCCC

RESULT:
1: 89; 2: 92; 3: -67.5

QUERY: Please list melting point recorded for the compound CC=CCCCCCCCCO
RESULT: 6

====

Assign class by boiling point: not lower than 200 °C means true; lower than 200 °C means false.

Below are worked cases with known answers.
> print(dat)
                                 molecule  class.assignment
1    CCC(C)C(C)C(C)C (stereo unspecified)             false
2  CC(C)OC(=O)C(C)Cl (stereo unspecified)             false
3        O=S(=O)(Cl)c1c(F)c(F)c(F)c(F)c1F              true
4                         CCCCCCCCC(=O)CC              true
5                   CC(C)COC(=O)Cc1ccccc1              true
6                  Nc1c(F)c(F)c(F)c(F)c1F             false

QUERY: Please indicate if the recorded boiling point for Oc1cccc(Br)c1 meets or exceeds 200 °C.
RESULT: true

QUERY: Please indicate if the recorded boiling point for CN(C1CCCCC1)C1CCCCC1 meets or exceeds 200 °C.
RESULT: true

QUERY: Please indicate if the recorded boiling point for Cc1ccc(C(C)C)c(O)c1 meets or exceeds 200 °C.
RESULT: true

QUERY: Please indicate if the recorded boiling point for O=[N+]([O-])c1ccc(F)cc1F meets or exceeds 200 °C.
RESULT: true

QUERY: Please indicate if the recorded boiling point for CCCCOC(=O)OCCCC meets or exceeds 200 °C.
RESULT: false

QUERY: Please indicate if the recorded boiling point for CCCCCCCC(=O)OCCCCC meets or exceeds 200 °C.
RESULT: true

QUERY: Please indicate if the recorded boiling point for ClC1=CCCCC1 meets or exceeds 200 °C.
RESULT: false

QUERY: Please indicate if the recorded boiling point for Cc1cc(Cl)c2ccccc2n1 meets or exceeds 200 °C.
RESULT: true

QUERY: Please indicate if the recorded boiling point for FC(F)(F)C(F)(F)C(F)(F)C(F)(F)OC(F)(F)C(F)(F)C(F)(F)C(F)(F)F meets or exceeds 200 °C.
RESULT: false

QUERY: Please indicate if the recorded boiling point for CC[C@H](C)[C@@H](C)[C@@H](C)O meets or exceeds 200 °C.
RESULT: false

QUERY: Please indicate if the recorded boiling point for CCO[Si](c1ccccc1)(c1ccccc1)c1ccccc1 meets or exceeds 200 °C.
RESULT: true

QUERY: Please indicate if the recorded boiling point for Nc1cccc(Cl)c1Cl meets or exceeds 200 °C.
RESULT: true

QUERY: Please indicate if the recorded boiling point for FC(F)(F)C(F)(F)C(F)(F)F meets or exceeds 200 °C.
RESULT: false

QUERY: Please indicate if the recorded boiling point for CC(C)ON=O meets or exceeds 200 °C.
RESULT: false

QUERY: Please indicate if the recorded boiling point for Clc1ccccc1 meets or exceeds 200 °C.
RESULT: false

QUERY: Please indicate if the recorded boiling point for C=CC meets or exceeds 200 °C.
RESULT: false

QUERY: Please indicate if the recorded boiling point for C=C(F)F meets or exceeds 200 °C.
RESULT: false

QUERY: Please indicate if the recorded boiling point for C=C(C)C(C)C meets or exceeds 200 °C.
RESULT: false

====

Assignment: determine reported boiling point for the given compounds.
One number for each entry, in °C.

Field: example entries. Status: answers known.
> print(dat)
               compound  measured.attribute  measurement.units  endpoint.result
1  Clc1ccc2cc(Cl)ccc2c1       boiling point                 °C              285
2                  ICCI       boiling point                 °C              200
3      CC(C)CC(O)CC(C)C       boiling point                 °C              174
4               COCCCCl       boiling point                 °C              111
5         COc1ccc(C)cc1       boiling point                 °C              176

// batch mode: one boiling point value per listed entry
1. Nc1ccccc1Cl
2. Cc1cccc(S)c1

RESULT:
1. 209
2. 195

// batch mode: one boiling point value per listed entry
1. CC(Cl)CBr (stereo not drawn)
2. CC(C)(C)CC(C)(C)S
3. Cc1cc(C)c(C)c(C)c1
4. OCC(Cl)CCl (stereo not drawn)
5. O=C(O)Cc1ccccc1
6. CCC(O)C(Cl)(Cl)Cl (stereo not drawn)
7. C=CC=C

RESULT:
1: 118; 2: 160; 3: 198; 4: 184; 5: 266; 6: 171; 7: -4.4

// batch mode: one boiling point value per listed entry
1. CC(C)=C1CCCC(C)C1 (stereo not drawn)
2. CCC=NO
3. CCC1CCCS1 (stereo not drawn)
4. CC(=O)c1ccc(C)cc1O
5. C=C(C)[C@H](C)O
6. OCCOCCO
7. C=C[C@@](C)(O)CC/C=C(/C)CCC=C(C)C
8. CCOC(=O)CCCl

RESULT:
1: 174; 2: 132; 3: 157; 4: 245; 5: 114; 6: 246; 7: 276; 8: 162

QUERY: Please list boiling point recorded for the compound CC(O)COCC(C)O (stereo not drawn)
RESULT: 233
